Entries and their measured composite z-score follow.
# Tested on: Noggin (protein binding on small-molecule microarray)
# TEST SUMMARY: Noggin binders on small-molecule microarray, primary screen, biochemical, 635/667 nm fluorescence (AID 1095);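 further: score merges 667 nm feature fluorescence with signal to noise over triplicate slides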
# PARTICULARS: 635 nm fluorescence, higher = more signal

Guide cases for composite z-score, answers given:
O=C1O[C@@H](c2ccccc2)[C@@H](c2ccccc2)N2[C@@H](c3ccccc3OCCO)[C@]3(C(=O)Nc4ccc(C#CCCO)cc43)[C@@H](C(=O)Nc3nc4ccccc4s3)[C@H]12
0.448
O=C1NC(=O)C2C1C=CC(C(O)c1cc(C(F)(F)F)cc(C(F)(F)F)c1)N2Nc1ccc(Cl)cc1Cl (stereo not drawn)
-0.93
C=C[C@@H](COC(C)=O)NS(=O)(=O)c1ccc(Br)cc1
0.516
CC(C)OC(=O)CC(=O)CC(O)c1cccc(C#N)c1 (stereo not drawn)
-0.412
COc1ccc(NN2C(C(O)c3ccccn3)C=CC3C(=O)N(C4CCCCC4)C(=O)C32)cc1 (stereo not drawn)
0.05

Please report the measured composite z-score for `COC(=O)[C@@]1(Cc2ccccc2)[C@H]2c3cc(C(=O)N4CCCC4)n(Cc4cc(F)cc5c4OCOC5)c3C[C@H]2CN1C(=O)c1ccccc1`
-0.584

Please report the measured composite z-score for `CCOC(=O)[C@H]1C/C=C/C[C@H](C(=O)OCC)C(=O)O[C@H]2[C@@H](OC)O[C@H](CO)[C@@H](OC(=O)CCc3ccccc3)[C@@H]2OC1=O`
0.0226

Please report the measured composite z-score for `C[N+](C)(C)CCCC[C@@H]1NC(=O)[C@@H]2C[C@H](C(=O)O)[C@H](c3ccc(O)cc3)N2C1=O`
-0.342
